assay_overview: Mouse plasma and brain pharmacokinetics, IP administration
Format: in vivo
test_conditions: male, C57BL/6, mouse, plasma; 10 mg/kg IP; read-out: AUC0.25–4 h plasma (AUCLAST)
parameter_measured: AUC(0-t) (ng·h/mL)
One number for each entry, in ng·h/mL.

NC(=O)CC(F)(F)C(=O)N1N=C(c2c(-c3ccc(Cl)cc3)c3ccccc3[nH]c2=O)CC1c1ccc(Cl)cc1 (centres unmarked); 2270

Kindly review the next compound as well.
Asked: Item O=C(O)CC(F)(F)C(=O)N1N=C(c2c(-c3ccc(Cl)cc3)c3ccccc3[nH]c2=O)CC1c1ccc(Cl)cc1 (centres unmarked) has what recorded AUC(0-t)?
Given back: 3850

----------
Give half-life at 3 μM for every item shown.
assay_overview: Liver microsome stability, human
Format: in vitro ADME
test_conditions: liver microsomes, incubation up to 30 min, 3 μM, read-out: liver microsome stability T1/2, human
Answers are plain numbers, in min.

Recorded half-life at 3 μM, per entry:
CC(C)(C)COC(=O)CC(F)(F)C(=O)N1N=C(c2c(-c3ccc(Cl)cc3)c3ccccc3[nH]c2=O)CC1c1ccc(Cl)cc1 (stereo not shown); 3.7
O=C(CC(F)(F)C(=O)N1N=C(c2c(-c3ccc(Cl)cc3)c3ccccc3[nH]c2=O)CC1c1ccc(Cl)cc1)OCc1ccccc1 (stereo not shown); 6.6

Hi team, please reply with half-life at 3 μM for each item in this list.
1. CCOC(=O)CC(F)(F)C(=O)N1N=C(c2c(-c3ccc(Cl)cc3)c3ccccc3[nH]c2=O)CC1c1ccc(Cl)cc1 (stereo not shown)
2. O=C(CC(F)(F)C(=O)N1N=C(c2c(-c3ccc(Cl)cc3)c3ccccc3[nH]c2=O)CC1c1ccc(Cl)cc1)OCC1CC1 (stereo not shown)

Given back:
[3.6, 2.4]

Asked: Item CC(C)OC(=O)CC(F)(F)C(=O)N1N=C(c2c(-c3ccc(Cl)cc3)c3ccccc3[nH]c2=O)CC1c1ccc(Cl)cc1 (stereo not shown) has what recorded half-life at 3 μM?
Given back: 4

----------
assay_overview: Brain homogenate tissue binding and stability (RED device)
Format: in vitro ADME, mouse
test_conditions: C57BL/6, mouse, brain homogenate (4 times diluted), pH 7.4; starting concentration 5 μM; 4 h
parameter_measured: remaining at 4 h, 5 µM (%)
One number for each entry, in %.

Hi team, please reply with remaining at 4 h, 5 µM for each item in this list.
1. O=C(CC(F)(F)C(=O)N1N=C(c2c(-c3ccc(Cl)cc3)c3ccccc3[nH]c2=O)CC1c1ccc(Cl)cc1)OCC1CC1 (stereo not shown)
2. CN(C)C(=O)CC(F)(F)C(=O)N1N=C(c2c(-c3ccc(Cl)cc3)c3ccccc3[nH]c2=O)CC1c1ccc(Cl)cc1 (stereo not shown)
3. O=C(O)CCC(=O)N1N=C(c2c(-c3ccc(Cl)cc3)c3ccccc3[nH]c2=O)CC1c1ccc(Cl)cc1 (stereo not shown)
4. CC(C)OC(=O)CC(F)(F)C(=O)N1N=C(c2c(-c3ccc(Cl)cc3)c3ccccc3[nH]c2=O)CC1c1ccc(Cl)cc1 (stereo not shown)
5. CC(C)(C)COC(=O)CC(F)(F)C(=O)N1N=C(c2c(-c3ccc(Cl)cc3)c3ccccc3[nH]c2=O)CC1c1ccc(Cl)cc1 (stereo not shown)
6. NC(=O)N1c2ccccc2C=Cc2ccccc21 [Carbamazepine, reference compound]

Given back:
1: 25; 2: 93; 3: 94; 4: 56; 5: 53; 6: 105

Asked: Item O=C(CC(F)(F)C(=O)N1N=C(c2c(-c3ccc(Cl)cc3)c3ccccc3[nH]c2=O)CC1c1ccc(Cl)cc1)OCc1ccccc1 (stereo not shown) has what recorded remaining at 4 h, 5 µM?
Given back: 31
